Origin of the recorded values: patent US12448383B2

Tested on: Caco-2 cells (clone C2BBe1)
Assay: CACO-2 permeability
Assay type: in vitro ADME
Parameters: unit not given here
Conditions: basolateral to apical
Lab note: compare DM Caco2 B to A against 10. Equal or greater, write satisfied. Smaller, write not satisfied.

N#C[C@@]1(c2ccc3c(N)ncnn23)O[C@H](COC(=O)OC2CCCCC2)[C@@H](O)[C@H]1O : satisfied
C[C@@H](OC(=O)OC[C@H]1O[C@@](C#N)(c2ccc3c(N)ncnn23)[C@H](O)[C@@H]1O)c1ccccc1 : satisfied
COC(=O)O[C@H]1[C@@H](OC(=O)OC)[C@](C#N)(c2ccc3c(N)ncnn23)O[C@@H]1COC(=O)OC(C)C : satisfied
N#C[C@@]1(c2ccc3c(N)ncnn23)O[C@H](COC(=O)OC2CCC2)[C@@H](O)[C@H]1O : not satisfied
CC(C)COC(=O)Nc1ncnn2c([C@]3(C#N)O[C@H](COC(=O)OCC(C)C)[C@@H](O)[C@H]3O)ccc12 : not satisfied
CC1(C)[C@@H]2CC[C@@]1(C)[C@@H](OC(=O)OC[C@H]1O[C@@](C#N)(c3ccc4c(N)ncnn34)[C@H](O)[C@@H]1O)C2 : satisfied
CCOC(=O)OC[C@H]1O[C@@](C#N)(c2ccc3c(NC(=O)OCc4ccccc4)ncnn23)[C@H](O)[C@@H]1O : satisfied
C=CCOC(=O)OC[C@H]1O[C@@](C#N)(c2ccc3c(N)ncnn23)[C@H](O)[C@@H]1O : not satisfied
N#CC12CC(COC(=O)OC[C@H]3O[C@@](C#N)(c4ccc5c(N)ncnn45)[C@H](O)[C@@H]3O)(C1)C2 : not satisfied
N#C[C@@]1(c2ccc3c(N)ncnn23)O[C@H](COC(=O)OC2CC2)[C@@H](O)[C@H]1O : not satisfied

Now examine the next entry.
Textbook exercise: given the entry "Cc1ccc(C(C)C)c(OC(=O)OC[C@H]2O[C@@](C#N)(c3ccc4c(N)ncnn34)[C@H](O)[C@@H]2O)c1" , state whether its DM Caco2 B to A is greater than or equal to 10. satisfied
